- tested target: Adenosine receptor A1 (Rattus norvegicus)
- Sequence (P25099 whole entry): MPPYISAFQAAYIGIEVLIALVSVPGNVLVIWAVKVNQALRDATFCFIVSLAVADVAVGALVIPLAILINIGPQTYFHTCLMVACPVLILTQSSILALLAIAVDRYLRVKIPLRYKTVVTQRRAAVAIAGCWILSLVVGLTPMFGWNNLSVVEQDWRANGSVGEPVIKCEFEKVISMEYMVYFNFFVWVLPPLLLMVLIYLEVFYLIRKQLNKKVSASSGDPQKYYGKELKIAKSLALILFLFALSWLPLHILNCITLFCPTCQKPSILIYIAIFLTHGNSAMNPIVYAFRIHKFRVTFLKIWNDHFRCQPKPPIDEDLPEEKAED
Lab note: cut-off is 50 nM. Strictly less in Ki is Criterion met. Exactly 50 nM or more is Criterion not met.

molecule: O=C(Cc1cccc(Cl)c1)Nc1nc2ccc(Cl)cc2c2nc(-c3ccco3)nn12
tested target: Adenosine receptor A1 (Rattus norvegicus)
assigned class: Criterion met
//
molecule: CC(C)(C)OC(=O)NCCCCC(=O)Nc1nc2ccc(Cl)cc2c2nc(-c3ccco3)nn12
tested target: Adenosine receptor A1 (Rattus norvegicus)
assigned class: Criterion met
//
molecule: CC(NC(=O)OC(C)(C)C)C(=O)Nc1nc2ccc(Cl)cc2c2nc(-c3ccco3)nn12 (stereo unspecified)
tested target: Adenosine receptor A1 (Rattus norvegicus)
assigned class: Criterion not met
//
molecule: CC(C)(C)OC(=O)NCCCCCCC(=O)Nc1nc2ccc(Cl)cc2c2nc(-c3ccco3)nn12
tested target: Adenosine receptor A1 (Rattus norvegicus)
assigned class: Criterion met
//
molecule: O=C(Cc1ccccc1)Nc1nc2ccc(Cl)cc2c2nc(-c3ccco3)nn12
tested target: Adenosine receptor A1 (Rattus norvegicus)
assigned class: Criterion not met
//
molecule: CC(C)(C)OC(=O)NCCCC(=O)Nc1nc2ccc(Cl)cc2c2nc(-c3ccco3)nn12
tested target: Adenosine receptor A1 (Rattus norvegicus)
assigned class: Criterion met

* * *

Target or system UniProt:P30543; recorded quantity pKi.
Sequence (P30543 whole entry): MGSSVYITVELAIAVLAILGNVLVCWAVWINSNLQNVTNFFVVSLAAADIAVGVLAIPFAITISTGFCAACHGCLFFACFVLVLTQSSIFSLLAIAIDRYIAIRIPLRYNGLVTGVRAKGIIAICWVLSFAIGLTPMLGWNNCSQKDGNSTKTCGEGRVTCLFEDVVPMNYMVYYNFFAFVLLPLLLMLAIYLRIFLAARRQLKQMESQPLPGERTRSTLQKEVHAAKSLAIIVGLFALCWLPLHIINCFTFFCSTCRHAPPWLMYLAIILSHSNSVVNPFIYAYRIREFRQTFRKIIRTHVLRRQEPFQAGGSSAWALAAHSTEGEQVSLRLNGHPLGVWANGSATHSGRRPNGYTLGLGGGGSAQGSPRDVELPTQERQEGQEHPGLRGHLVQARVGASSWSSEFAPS
pKi: −log10 of the molar value.
observable: pKi

molecule: O=C(Cc1ccccc1)Nc1nc2ccc(Cl)cc2c2nc(-c3ccco3)nn12
tested target: UniProt:P30543
relation sign: =
test result: 7.99
--
molecule: COC(=O)CCCCCCC(=O)Nc1nc2ccc(Cl)cc2c2nc(-c3ccco3)nn12
tested target: UniProt:P30543
relation sign: =
test result: 8.13
--
molecule: CCO/C(O)=C1\C(C)=NC(c2ccccc2)=C(C(=O)OCc2ccc([N+](=O)[O-])cc2)C1C#Cc1ccccc1 (centres undefined)
tested target: UniProt:P30543
relation sign: <
test result: 7.00
--
molecule: Clc1ccc2nc(NCc3ccccc3)n3nc(-c4ccco4)nc3c2c1
tested target: UniProt:P30543
relation sign: =
test result: 6.70
--
molecule: O=C(/C=C/c1ccccc1)Nc1nc2ccc(Cl)cc2c2nc(-c3ccco3)nn12
tested target: UniProt:P30543
relation sign: =
test result: 7.22
--
molecule: O=C(Cc1cccc(Cl)c1)Nc1nc2ccc(Cl)cc2c2nc(-c3ccco3)nn12
tested target: UniProt:P30543
relation sign: =
test result: 8.03
--
molecule: NCCC(=O)Nc1nc2ccc(Cl)cc2c2nc(-c3ccco3)nn12
tested target: UniProt:P30543
relation sign: =
test result: 8.12
--
molecule: NCCCCCCC(=O)Nc1nc2ccc(Cl)cc2c2nc(-c3ccco3)nn12
tested target: UniProt:P30543
relation sign: =
test result: 7.25
--
molecule: CC(C(=O)Nc1nc2ccc(Cl)cc2c2nc(-c3ccco3)nn12)(c1ccccc1)c1ccccc1
tested target: UniProt:P30543
relation sign: =
test result: 6.34
--
molecule: O=C(O)CCCC(=O)Nc1nc2ccc(Cl)cc2c2nc(-c3ccco3)nn12
tested target: UniProt:P30543
relation sign: =
test result: 8.94
--
molecule: NCCCCCC(=O)Nc1nc2ccc(Cl)cc2c2nc(-c3ccco3)nn12
tested target: UniProt:P30543
relation sign: =
test result: 7.99
--
molecule: CC(C)(C)OC(=O)NCCC(=O)Nc1nc2ccc(Cl)cc2c2nc(-c3ccco3)nn12
tested target: UniProt:P30543
relation sign: =
test result: 8.12
--
molecule: O=C(Cc1cccc(I)c1)Nc1nc2ccc(Cl)cc2c2nc(-c3ccco3)nn12
tested target: UniProt:P30543
relation sign: =
test result: 8.01
--
molecule: O=C(Nc1nc2ccc(Cl)cc2c2nc(-c3ccco3)nn12)C(c1ccccc1)c1ccccc1
tested target: UniProt:P30543
relation sign: =
test result: 7.92
--
molecule: Nc1nc2ccc(Cl)cc2c2nc(-c3ccco3)nn12
tested target: UniProt:P30543
relation sign: =
test result: 8.48
--
molecule: C[C@@H](NC(=O)OC(C)(C)C)C(=O)Nc1nc2ccc(Cl)cc2c2nc(-c3ccco3)nn12
tested target: UniProt:P30543
relation sign: =
test result: 7.73
--
molecule: CC(C)(C)OC(=O)NCCCCC(=O)Nc1nc2ccc(Cl)cc2c2nc(-c3ccco3)nn12
tested target: UniProt:P30543
relation sign: =
test result: 8.44
--
molecule: O=C(Cc1ccc(I)cc1)Nc1nc2ccc(Cl)cc2c2nc(-c3ccco3)nn12
tested target: UniProt:P30543
relation sign: =
test result: 8.00
--
molecule: CC(C)(C)OC(=O)NCCCCCC(=O)Nc1nc2ccc(Cl)cc2c2nc(-c3ccco3)nn12
tested target: UniProt:P30543
relation sign: =
test result: 7.47
--
molecule: O=C(CCCCC(=O)OCc1ccccc1)Nc1nc2ccc(Cl)cc2c2nc(-c3ccco3)nn12
tested target: UniProt:P30543
relation sign: =
test result: 7.78
--
molecule: Nc1ccc(CC(=O)Nc2nc3ccc(Cl)cc3c3nc(-c4ccco4)nn23)cc1I
tested target: UniProt:P30543
relation sign: =
test result: 7.98
--
molecule: NCCCC(=O)Nc1nc2ccc(Cl)cc2c2nc(-c3ccco3)nn12
tested target: UniProt:P30543
relation sign: =
test result: 8.86
--
molecule: COC(=O)CCC(=O)Nc1nc2ccc(Cl)cc2c2nc(-c3ccco3)nn12
tested target: UniProt:P30543
relation sign: =
test result: 7.54
--
molecule: C[C@@H](C(=O)Nc1nc2ccc(Cl)cc2c2nc(-c3ccco3)nn12)c1ccccc1
tested target: UniProt:P30543
relation sign: =
test result: 7.70
